target: RELARELA (p65 homodimer) (Homo sapiens, UniProt Q04206 1-307)
Sequence (Q04206 1-307): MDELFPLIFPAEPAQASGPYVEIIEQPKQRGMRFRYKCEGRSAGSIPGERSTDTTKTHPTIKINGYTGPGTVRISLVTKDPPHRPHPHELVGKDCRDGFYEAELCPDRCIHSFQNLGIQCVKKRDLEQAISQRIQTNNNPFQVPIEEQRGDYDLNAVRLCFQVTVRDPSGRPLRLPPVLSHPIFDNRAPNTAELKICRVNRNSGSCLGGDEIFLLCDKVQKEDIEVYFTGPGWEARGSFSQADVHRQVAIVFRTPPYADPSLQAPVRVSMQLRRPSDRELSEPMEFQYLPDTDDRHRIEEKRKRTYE
test_protocol: protein binding microarray; high values mean tight binding
test_parameters: dsDNA, one strand shown
I'd appreciate it if you marked entries Fulfilled when binding signal is lower than 0.8 z-score and Not fulfilled when it is not.

[[record]]
construct_sequence = "CAATACGCCCC"
category_label = "Fulfilled"

[[record]]
construct_sequence = "AAGTGTTCCCC"
category_label = "Not fulfilled"

[[record]]
construct_sequence = "GGGTAACCCCT"
category_label = "Not fulfilled"

[[record]]
construct_sequence = "CGGGGTTCCCC"
category_label = "Not fulfilled"

[[record]]
construct_sequence = "AAAATCTTCCC"
category_label = "Not fulfilled"

[[record]]
construct_sequence = "AAGTTCACCCC"
category_label = "Fulfilled"

[[record]]
construct_sequence = "GGAAGAGCCCT"
category_label = "Fulfilled"

[[record]]
construct_sequence = "CAGAATACCCT"
category_label = "Fulfilled"

[[record]]
construct_sequence = "AAGGGAATCCC"
category_label = "Not fulfilled"


====

target: RELA (p65) subunit of heterodimer;p50 subunit (Homo sapiens;Homo sapiens, UniProt Q04206;P19838 1-307;7-356)
Sequence (Q04206 1-307, chain 1 of 2): as the sequence (Q04206 1-307) above
Sequence (P19838 7-356, chain 2 of 2): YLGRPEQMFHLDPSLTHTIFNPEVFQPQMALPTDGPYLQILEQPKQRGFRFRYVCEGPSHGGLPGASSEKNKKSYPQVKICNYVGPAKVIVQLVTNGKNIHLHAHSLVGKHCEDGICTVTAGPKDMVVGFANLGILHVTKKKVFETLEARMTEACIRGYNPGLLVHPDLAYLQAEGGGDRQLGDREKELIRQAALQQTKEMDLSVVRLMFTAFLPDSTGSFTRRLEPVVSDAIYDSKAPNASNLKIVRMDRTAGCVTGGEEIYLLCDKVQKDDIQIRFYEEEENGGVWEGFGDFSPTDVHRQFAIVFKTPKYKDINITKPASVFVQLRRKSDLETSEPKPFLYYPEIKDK
test_protocol: protein binding microarray; high values mean tight binding
test_parameters: dsDNA, one strand shown
Each entry below carries its reported binding signal.
measurement_name: binding signal (z-score)

[[record]]
construct_sequence = "AGGAGAACCCT"
result_value = -0.838

[[record]]
construct_sequence = "AGATTGACCCT"
result_value = -0.583

[[record]]
construct_sequence = "CAGTTCTCCCT"
result_value = 0.838

[[record]]
construct_sequence = "AGATTCTTCCT"
result_value = -0.559

[[record]]
construct_sequence = "AAGGATATCCT"
result_value = -0.853

[[record]]
construct_sequence = "CGGTGTACCCT"
result_value = -0.317

[[record]]
construct_sequence = "CAATGACCCCC"
result_value = 0.0857

[[record]]
construct_sequence = "AAAATCGCCCT"
result_value = -0.458

[[record]]
construct_sequence = "GAAAGTGTCCT"
result_value = -0.843

[[record]]
construct_sequence = "CGAAGCTTCCC"
result_value = -0.322

[[record]]
construct_sequence = "GAGGAAATCCT"
result_value = -0.399

[[record]]
construct_sequence = "AAGAGGCTCCC"
result_value = -0.958

[[record]]
construct_sequence = "AAAAATCCCCT"
result_value = 2.55

[[record]]
construct_sequence = "AAGATCGTCCC"
result_value = -0.197

[[record]]
construct_sequence = "AAGAATGTCCC"
result_value = 0.927

[[record]]
construct_sequence = "AAATACACCCC"
result_value = 0.224

[[record]]
construct_sequence = "CAATAATCCCT"
result_value = 0.226

[[record]]
construct_sequence = "AAAGTTACCCT"
result_value = 0.371

[[record]]
construct_sequence = "GAAGTTATCCC"
result_value = -0.31

[[record]]
construct_sequence = "AAAATAACCCC"
result_value = 1.03


====

target: RELARELA (p65 homodimer) (Homo sapiens, UniProt Q04206 1-307)
test_protocol: protein binding microarray; high values mean tight binding
test_parameters: dsDNA, one strand shown
Field 'label' (enum: true (1) / false (0)). Set to true (1) when binding signal is strictly under -0.08 z-score; else false (0).

[[record]]
construct_sequence = "AGAGGTGTCCT"
category_label = "true (1)"

[[record]]
construct_sequence = "CAAGGAGCCCC"
category_label = "true (1)"

[[record]]
construct_sequence = "AGATTTATCCC"
category_label = "false (0)"

[[record]]
construct_sequence = "AGATTCGCCCC"
category_label = "false (0)"

[[record]]
construct_sequence = "GAGTTCTTCCT"
category_label = "false (0)"

[[record]]
construct_sequence = "GGGGAATTCCC"
category_label = "false (0)"

[[record]]
construct_sequence = "GAATTTGTCCC"
category_label = "false (0)"

[[record]]
construct_sequence = "CGATGTACCCC"
category_label = "false (0)"

[[record]]
construct_sequence = "CGAGTGGTCCC"
category_label = "true (1)"

[[record]]
construct_sequence = "CAAAAGTTCCC"
category_label = "false (0)"


====

Entries and their binding signal
target: C-Rel subunit;p52 subunit (Homo sapiens;Homo sapiens, UniProt Q04864;Q00653 1-285;4-332)
Sequence 1: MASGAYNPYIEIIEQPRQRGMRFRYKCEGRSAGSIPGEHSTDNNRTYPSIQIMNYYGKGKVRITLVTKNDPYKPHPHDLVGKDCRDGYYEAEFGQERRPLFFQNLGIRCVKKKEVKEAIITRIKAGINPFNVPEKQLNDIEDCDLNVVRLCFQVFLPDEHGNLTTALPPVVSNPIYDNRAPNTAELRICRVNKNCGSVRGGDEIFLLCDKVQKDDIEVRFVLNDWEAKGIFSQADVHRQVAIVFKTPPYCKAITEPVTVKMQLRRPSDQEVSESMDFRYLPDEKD
Sequence 2: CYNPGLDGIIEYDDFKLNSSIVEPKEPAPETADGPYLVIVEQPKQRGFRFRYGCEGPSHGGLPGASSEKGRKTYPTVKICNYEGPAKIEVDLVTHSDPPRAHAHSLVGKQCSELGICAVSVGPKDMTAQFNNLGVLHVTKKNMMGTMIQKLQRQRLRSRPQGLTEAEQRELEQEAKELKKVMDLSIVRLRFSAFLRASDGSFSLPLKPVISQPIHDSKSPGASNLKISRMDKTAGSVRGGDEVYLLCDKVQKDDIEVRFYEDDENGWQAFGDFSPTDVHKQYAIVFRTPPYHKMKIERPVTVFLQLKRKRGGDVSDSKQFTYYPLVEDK
test_protocol: protein binding microarray; high values mean tight binding
test_parameters: dsDNA, one strand shown
measurement_name: binding signal

[[record]]
construct_sequence = "CAATGACTCCT"
result_value = "-1.13 z-score"

[[record]]
construct_sequence = "AAAGTTGCCCC"
result_value = "0.617 z-score"

[[record]]
construct_sequence = "CAAAGGCCCCC"
result_value = "0.0137 z-score"

[[record]]
construct_sequence = "CAAAGGGTCCC"
result_value = "-0.359 z-score"

[[record]]
construct_sequence = "CAAGTATTCCT"
result_value = "-0.822 z-score"

[[record]]
construct_sequence = "GGAAAGATCCT"
result_value = "-0.449 z-score"

[[record]]
construct_sequence = "GGGATCGTCCT"
result_value = "-0.166 z-score"

[[record]]
construct_sequence = "AAGGGGGCCCC"
result_value = "0.709 z-score"

[[record]]
construct_sequence = "GGGGAATTCCC"
result_value = "4.19 z-score"

[[record]]
construct_sequence = "GAGGAGCTCCT"
result_value = "-0.927 z-score"


====

target: p52p52 homodimer (Homo sapiens, UniProt Q00653 4-332)
Sequence: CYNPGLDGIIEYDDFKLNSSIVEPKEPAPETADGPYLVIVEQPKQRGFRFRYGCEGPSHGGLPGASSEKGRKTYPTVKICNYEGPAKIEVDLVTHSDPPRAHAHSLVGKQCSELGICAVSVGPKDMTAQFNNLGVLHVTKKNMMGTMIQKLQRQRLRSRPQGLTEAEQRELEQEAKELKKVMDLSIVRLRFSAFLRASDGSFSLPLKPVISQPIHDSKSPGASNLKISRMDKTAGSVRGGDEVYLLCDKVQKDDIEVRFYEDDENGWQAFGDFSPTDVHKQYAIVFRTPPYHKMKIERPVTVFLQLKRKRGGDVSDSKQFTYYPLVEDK
test_protocol: protein binding microarray; high values mean tight binding
test_parameters: dsDNA, one strand shown
Each record here notes measured binding signal.
measurement_name: binding signal

[[record]]
construct_sequence = "CGAGACGCCCC"
result_value = "-0.0437 z-score"

[[record]]
construct_sequence = "GGGAGTGTCCT"
result_value = "0.385 z-score"

[[record]]
construct_sequence = "AGATGTTCCCT"
result_value = "0.229 z-score"

[[record]]
construct_sequence = "AGAGGAGCCCC"
result_value = "0.0479 z-score"

[[record]]
construct_sequence = "GGATGCGTCCT"
result_value = "-0.665 z-score"

[[record]]
construct_sequence = "AGGTGTGCCCT"
result_value = "-0.541 z-score"

[[record]]
construct_sequence = "CAGAATTCCCC"
result_value = "2.61 z-score"

[[record]]
construct_sequence = "GAGATTTTCCT"
result_value = "-0.404 z-score"

[[record]]
construct_sequence = "CAGATCGTCCT"
result_value = "-0.471 z-score"

[[record]]
construct_sequence = "AAAAACCTCCC"
result_value = "-0.135 z-score"

[[record]]
construct_sequence = "CGAGGGTTCCC"
result_value = "-0.304 z-score"

[[record]]
construct_sequence = "CAAGGAGCCCC"
result_value = "-0.0311 z-score"

[[record]]
construct_sequence = "CAATATACCCC"
result_value = "0.195 z-score"

[[record]]
construct_sequence = "AGGTTGGCCCC"
result_value = "-0.374 z-score"

[[record]]
construct_sequence = "GGAGAGCTCCT"
result_value = "-0.711 z-score"

[[record]]
construct_sequence = "CGATGTGTCCC"
result_value = "0.228 z-score"

[[record]]
construct_sequence = "GGATTAGCCCC"
result_value = "0.296 z-score"

[[record]]
construct_sequence = "CGAAATCCCCC"
result_value = "2.27 z-score"

[[record]]
construct_sequence = "GGAGGAGTCCC"
result_value = "0.586 z-score"

[[record]]
construct_sequence = "CAGGTTACCCC"
result_value = "0.0851 z-score"

[[record]]
construct_sequence = "GAGTGCGTCCT"
result_value = "-0.581 z-score"

[[record]]
construct_sequence = "AAAAAGCCCCC"
result_value = "2.26 z-score"

[[record]]
construct_sequence = "CGATACCTCCC"
result_value = "-0.392 z-score"

[[record]]
construct_sequence = "GGGGAATTCCC"
result_value = "3.41 z-score"

[[record]]
construct_sequence = "CGATGTCTCCT"
result_value = "-0.736 z-score"

[[record]]
construct_sequence = "AAGGGGCTCCT"
result_value = "0.959 z-score"

[[record]]
construct_sequence = "CGGGGACCCCT"
result_value = "0.639 z-score"

[[record]]
construct_sequence = "CAAGACGCCCT"
result_value = "-0.745 z-score"

[[record]]
construct_sequence = "CGAGTAACCCC"
result_value = "-0.149 z-score"

[[record]]
construct_sequence = "AAGATGCCCCC"
result_value = "0.461 z-score"

[[record]]
construct_sequence = "GGAGTCCTCCC"
result_value = "-0.266 z-score"

[[record]]
construct_sequence = "GGAGGACCCCT"
result_value = "-0.0995 z-score"

[[record]]
construct_sequence = "AAGAGAGTCCT"
result_value = "-0.435 z-score"

[[record]]
construct_sequence = "GGGATGGCCCC"
result_value = "1.6 z-score"

[[record]]
construct_sequence = "AAAGGGTTCCT"
result_value = "-0.468 z-score"

[[record]]
construct_sequence = "AGAAGCATCCC"
result_value = "-0.607 z-score"

[[record]]
construct_sequence = "AGATATTCCCC"
result_value = "2.2 z-score"

[[record]]
construct_sequence = "AAGTTAGTCCT"
result_value = "-0.552 z-score"

[[record]]
construct_sequence = "AGGGGACTCCC"
result_value = "2.92 z-score"

[[record]]
construct_sequence = "GAGAGTTCCCC"
result_value = "1.71 z-score"

[[record]]
construct_sequence = "AGAAGCTCCCT"
result_value = "-0.322 z-score"

[[record]]
construct_sequence = "CGAGTTTCCCT"
result_value = "1.17 z-score"

